System: SNB-19
Test: NCI tumour cell line growth inhibition, 48 h
Calls of active or inactive are those of the source. No stated cut-off is given here; in the data, active = GI50 up to about 1.1 µM and inactive = higher.
ENDPOINT NAME: GI50

MOLECULE: CCOC(=O)C(O)(CC1=NC(C(=O)OC)(C(=O)OC)C(c2cccc(C=O)c2)O1)C(=O)OCC (stereo not given)
REPORTED MEASUREMENT: > 100 µM (inactive)
--
MOLECULE: Cc1ccc2ccc3ccc(C)nc3c2n1
REPORTED MEASUREMENT: > 100 µM (inactive)
--
MOLECULE: CC(=O)OCCOCNC(=S)N/N=C(\C)c1cnc2ccccc2n1
REPORTED MEASUREMENT: 99.3 µM (inactive)
--
MOLECULE: COc1ccc(/N=C2\S/C(=N\C(=N\c3ccccc3)SCc3ccccc3)N(c3ccccc3)\C2=N/c2ccc(OC)cc2)cc1
REPORTED MEASUREMENT: > 100 µM (inactive)
--
MOLECULE: O=c1cccccc1NCCCCCCNc1cccccc1=O
REPORTED MEASUREMENT: > 100 µM (inactive)

###

System: SF-268
Experiment: NCI tumour cell line growth inhibition, 48 h
Active and inactive are the calls of the source. Cut-off read from the data, not from the text of the source: active = GI50 up to about 1.1 µM and inactive = higher.
Outcomes: active, inactive

MOLECULE: Cc1ccccc1/N=C/c1ccc(N(CCC#N)S(=O)(=O)c2ccccc2)cc1
SUBJECT OF TEST: SF-268
ANSWER LABEL: inactive
//
MOLECULE: Nc1ccn(C2C=C(CO)C(O)C2O)c(=O)c1 (configuration not stated)
SUBJECT OF TEST: SF-268
ANSWER LABEL: inactive
//
MOLECULE: CC(C)(C)OC(=O)NCCc1ccc(N)cc1
SUBJECT OF TEST: SF-268
ANSWER LABEL: inactive
//
MOLECULE: N#Cc1c(NC(=O)C(F)(F)F)sc2c3c(=O)c4ccccc4c(=O)c=3oc3ccccc3c12
SUBJECT OF TEST: SF-268
ANSWER LABEL: inactive
//
MOLECULE: CC1(C)OC(=O)C2(O1)C(=O)C1CCCCC12 (configuration not stated)
SUBJECT OF TEST: SF-268
ANSWER LABEL: inactive
//
MOLECULE: CN(Cc1cnc2nc(N)nc(N)c2n1)c1ccc(C(=O)NC(CCC(=O)NC(CC(P(=O)(O)O)P(=O)(O)O)C(=O)O)C(=O)O)cc1 (configuration not stated)
SUBJECT OF TEST: SF-268
ANSWER LABEL: inactive
//
MOLECULE: COc1cc2c(cc1O)-c1c(cnn1-c1ccc([N+](=O)[O-])cc1)CCC2
SUBJECT OF TEST: SF-268
ANSWER LABEL: inactive
//
MOLECULE: COc1cc([C@@H]2c3cc4c(cc3C[C@@H]3COC(=O)C32)OCO4)cc(OC)c1O (some centres not stated)
SUBJECT OF TEST: SF-268
ANSWER LABEL: active
//
MOLECULE: Cc1nc2ccccc2n1Cc1ccc(NC(=S)Nc2ccccc2)cc1
SUBJECT OF TEST: SF-268
ANSWER LABEL: inactive
//
MOLECULE: C=Cc1nc(C#N)c(N)o1
SUBJECT OF TEST: SF-268
ANSWER LABEL: inactive
//
MOLECULE: C/N=c1\ss/c(=N\C(=S)N(C)C)n1-c1ccccc1
SUBJECT OF TEST: SF-268
ANSWER LABEL: inactive
//
MOLECULE: Cc1cc(-c2no[n+]([O-])c2-c2cc(C)sc2S(C)(=O)=O)c(S(C)(=O)=O)s1
SUBJECT OF TEST: SF-268
ANSWER LABEL: inactive
//
MOLECULE: CN(C)CC1(Cc2ccccc2)CC/C(=C\c2ccccc2)C1=O (configuration not stated)
SUBJECT OF TEST: SF-268
ANSWER LABEL: inactive
//
MOLECULE: O=Cc1c2n(c3ccccc13)N[C@@](Cc1ccc(O)cc1)(C(=O)O)C2
SUBJECT OF TEST: SF-268
ANSWER LABEL: inactive
//
MOLECULE: CC(C)OC(=O)c1cc(NC(=O)C(C)(C)C)c(F)cc1Cl
SUBJECT OF TEST: SF-268
ANSWER LABEL: inactive
//
MOLECULE: C=CCc1cc(C(Cc2ccccc2)NC(C)C)cc(OCc2ccccc2)c1OCc1ccccc1 (configuration not stated)
SUBJECT OF TEST: SF-268
ANSWER LABEL: inactive
//
MOLECULE: OCCCNc1[nH]cnc2nncc1-2
SUBJECT OF TEST: SF-268
ANSWER LABEL: inactive
//
MOLECULE: Cc1ccc2ccc3ccc(C)nc3c2n1
SUBJECT OF TEST: SF-268
ANSWER LABEL: inactive
//
MOLECULE: CC1=NN(C(=O)c2ccc(Cl)cc2)C(=O)/C1=C/c1ccc(O)cc1
SUBJECT OF TEST: SF-268
ANSWER LABEL: inactive
//
MOLECULE: CN(C(=O)C1CCCCCC1=O)c1ccccc1Cl (configuration not stated)
SUBJECT OF TEST: SF-268
ANSWER LABEL: inactive
//
MOLECULE: NC(=S)/N=C(/c1nc2ccc(Cl)cc2nc1O)C(O)c1ccccc1Cl (configuration not stated)
SUBJECT OF TEST: SF-268
ANSWER LABEL: inactive
//
MOLECULE: c1ccc(N2CCN(CCN3CCc4c([nH]c5ccccc45)C3c3cccnc3)CC2)cc1 (configuration not stated)
SUBJECT OF TEST: SF-268
ANSWER LABEL: inactive
